PARAMETER: Ki

Input: What measured Ki is associated with NCCCCCNC(=O)[C@@H](Cc1c[nH]c2ccccc12)NC(=O)N1CCC2(C=Cc3ccccc32)CC1 on Somatostatin receptor type 5 (Homo sapiens, UniProt P35346)?
Output: > 10 µM

Input: Param readout = Ki; param system = Somatostatin receptor type 5 (Homo sapiens, UniProt P35346); param query = NCC1CCCC(CNC(=O)[C@H](Cc2c[nH]c3ccccc23)NC(=O)N2CCC3(C=Cc4ccccc43)CC2)C1 (stereo partly drawn) ; response: value
Sequence (P35346 whole entry): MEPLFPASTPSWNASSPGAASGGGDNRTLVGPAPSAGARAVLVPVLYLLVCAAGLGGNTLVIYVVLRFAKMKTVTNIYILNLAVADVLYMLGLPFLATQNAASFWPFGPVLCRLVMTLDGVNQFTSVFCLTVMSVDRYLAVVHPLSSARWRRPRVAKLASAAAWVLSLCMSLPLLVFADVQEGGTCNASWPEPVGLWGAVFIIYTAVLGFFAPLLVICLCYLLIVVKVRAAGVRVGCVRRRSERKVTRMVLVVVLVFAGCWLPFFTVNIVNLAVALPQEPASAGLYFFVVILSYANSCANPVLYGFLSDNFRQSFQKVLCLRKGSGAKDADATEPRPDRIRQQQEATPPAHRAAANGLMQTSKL
Output: 5.02 µM

Input: Fill in the recorded Ki for this compound, with Somatostatin receptor type 5 (Homo sapiens, UniProt P35346) as test system: NCCCCNC(=O)C(Cc1c[nH]c2ccccc12)NC(=O)N1CCC2(C=Cc3ccccc32)CC1 (stereo not drawn)
Output: > 10 µM

###

# SYSTEM: Somatostatin receptor type 1 (Homo sapiens)
# Sequence (P30872 whole entry): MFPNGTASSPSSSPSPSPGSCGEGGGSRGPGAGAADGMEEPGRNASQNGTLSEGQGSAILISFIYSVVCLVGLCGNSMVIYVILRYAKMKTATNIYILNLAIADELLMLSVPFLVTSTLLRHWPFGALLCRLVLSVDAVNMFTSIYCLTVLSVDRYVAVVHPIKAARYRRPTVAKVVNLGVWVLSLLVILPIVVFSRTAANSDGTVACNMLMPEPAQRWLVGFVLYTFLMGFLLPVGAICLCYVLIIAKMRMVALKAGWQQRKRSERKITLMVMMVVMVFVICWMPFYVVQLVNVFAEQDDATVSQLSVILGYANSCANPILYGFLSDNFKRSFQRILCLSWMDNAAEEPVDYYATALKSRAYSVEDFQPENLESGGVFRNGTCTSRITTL
# ASSAY_PROCEDURE: Binding affinity towards human sst1 receptor expressed in CHO-K1 cells
# Type: cell-based
Exercise: for every item that follows, state its recorded pKi.
// pKi here means minus log10 of the molar concentration (mol/L)

Input: Quick one: pKi of NCC1CCCC(CNC(=O)[C@H](Cc2c[nH]c3ccccc23)NC(=O)N2CCC3(C=Cc4ccccc43)CC2)C1 (some centres not stated) ?
Output: 6.27

Input: Could you tell me which pKi is on file for NCCCCNC(=O)C(Cc1c[nH]c2ccccc12)NC(=O)N1CCC2(C=Cc3ccccc32)CC1 (configuration not stated) ?
Output: 5.37

###

# SYSTEM: Somatostatin receptor type 4 (Homo sapiens, UniProt P31391)
# Sequence (P31391 whole entry): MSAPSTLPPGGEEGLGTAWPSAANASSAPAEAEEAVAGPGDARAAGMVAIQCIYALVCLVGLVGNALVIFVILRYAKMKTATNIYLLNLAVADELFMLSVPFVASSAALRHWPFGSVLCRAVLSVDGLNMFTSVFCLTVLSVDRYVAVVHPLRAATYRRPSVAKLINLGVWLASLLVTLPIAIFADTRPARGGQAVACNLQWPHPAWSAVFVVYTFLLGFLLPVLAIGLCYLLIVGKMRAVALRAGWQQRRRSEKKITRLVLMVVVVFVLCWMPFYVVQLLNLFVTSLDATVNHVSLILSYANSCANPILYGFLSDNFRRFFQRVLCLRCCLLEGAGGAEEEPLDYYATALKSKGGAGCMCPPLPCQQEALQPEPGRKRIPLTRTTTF
# ASSAY_PROCEDURE: Binding affinity towards human sst4 receptor expressed in CHO-K1 cells
# Format: cell-based
PARAMETER: Ki (nM)
Provide the reading as a plain figure in nM.

Input: GET /values?readout=Ki&item= NCC1CCCC(CNC(=O)[C@H](Cc2c[nH]c3ccccc23)NC(=O)N2CCC3(C=Cc4ccccc43)CC2)C1 (stereo partly specified)
Output: 2480

###

# SYSTEM: Somatostatin receptor type 3 (Homo sapiens, UniProt P32745)
# Sequence (P32745 whole entry): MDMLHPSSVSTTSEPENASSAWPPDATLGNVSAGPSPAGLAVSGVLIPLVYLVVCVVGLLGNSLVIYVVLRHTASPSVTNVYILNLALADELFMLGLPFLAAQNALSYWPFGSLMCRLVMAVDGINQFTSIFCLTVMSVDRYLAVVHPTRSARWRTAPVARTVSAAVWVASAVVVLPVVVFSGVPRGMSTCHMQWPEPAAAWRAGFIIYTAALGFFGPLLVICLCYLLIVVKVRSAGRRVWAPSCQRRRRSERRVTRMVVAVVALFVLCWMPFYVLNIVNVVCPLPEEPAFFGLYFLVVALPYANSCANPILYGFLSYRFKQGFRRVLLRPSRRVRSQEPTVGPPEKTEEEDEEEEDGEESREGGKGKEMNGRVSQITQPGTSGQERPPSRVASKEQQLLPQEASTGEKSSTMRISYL
PARAMETER: pKi
Scale: pKi equals -log10([C]), with [C] in mol/L.

Input: GET /values?readout=pKi&item= NCCCCCNC(=O)[C@@H](Cc1c[nH]c2ccccc12)NC(=O)N1CCC2(C=Cc3ccccc32)CC1
Output: 5.59
